The values you see were collected from patent US11339193B2.

Tested on: HER3ss-Gluc
method: HER3ss assay
Assay type: cell-based
particulars: HEK-293T T-rex cells, transient transfection, doxycycline, 24 h; read-out: HER3 ss IC50
pIC50: −log10 of the molar value. Square brackets hold non-standard residues; d marks the D form. Peptide text beside a SMILES is read from it. Butanoyl(2R-oxy,4-CN) = N#CCC[C@@H](O)C(=O)O; Nva(5,5,5-F3) = N[C@@H](CCC(F)(F)F)C(=O)O; Abu(4,4,4-F3) = N[C@@H](CC(F)(F)F)C(=O)O; NMeBta = CN[C@@H](Cc1csc2ccccc12)C(=O)O; NMeL = CN[C@@H](CC(C)C)C(=O)O; NMeA = CN[C@@H](C)C(=O)O
measurement.type: pIC50

{"columns": ["molecule", "reported.value"],
 "data": [
  ["CC(C)C[C@@H]1NC(=O)[C@H](Cc2cn(Cc3ccc(F)cc3)c3ccccc23)N(C)C(=O)[C@H](CC(C)C)NC(=O)[C@H](CC(C)C)N(C)C(=O)[C@H](CC(C)C)NC(=O)[C@@H](CCC#N)OC(=O)[C@H](C)N(C)C1=O [C-12] (HELM PEPTIDE1{L.[meA].[N#CCC[C@@H](O[*:1])C(=O)[*:2]].L.[meL].L.[CN([C@@H](Cc1cn(Cc2ccc(F)cc2)c2ccccc12)C(=O)[*:2])[*:1]]}$PEPTIDE1,PEPTIDE1,1:R1-7:R2$$$V2.0)", 7.51],
  ["CC(C)C[C@@H]1NC(=O)[C@H](Cc2cn(Cc3ccc(F)nc3)c3ccccc23)N(C)C(=O)[C@H](CC(C)C)NC(=O)[C@H](CC(C)C)N(C)C(=O)[C@H](CC(C)C)NC(=O)[C@@H](CCC#N)OC(=O)[C@H](C)N(C)C1=O [C-36] (HELM PEPTIDE1{L.[meA].[N#CCC[C@@H](O[*:1])C(=O)[*:2]].L.[meL].L.[CN([C@@H](Cc1cn(Cc2ccc(F)nc2)c2ccccc12)C(=O)[*:2])[*:1]]}$PEPTIDE1,PEPTIDE1,1:R1-7:R2$$$V2.0)", 6.46],
  ["CC(C)C[C@@H]1NC(=O)[C@H](Cc2ccccc2)N(C)C(=O)[C@H](CC(C)C)NC(=O)[C@H](CC(C)C)N(C)C(=O)[C@H](CC(C)C)NC(=O)[C@@H](C)OC(=O)[C@H](C)N(C)C1=O [C-34] (HELM PEPTIDE1{L.[meA].[C[C@@H](O[*:1])C(=O)[*:2]].L.[meL].L.[meF]}$PEPTIDE1,PEPTIDE1,1:R1-7:R2$$$V2.0)", 6.02],
  ["CCCC[C@@H]1NC(=O)[C@@H](CCC#N)OC(=O)[C@H](C)N(C)C(=O)[C@H](CC(C)C)NC(=O)[C@H](Cc2cn(Cc3ccc(Br)cc3)c3ccccc23)N(C)C(=O)[C@H](CC(C)C)NC(=O)[C@H](CC(C)C)N(C)C1=O [C-40] (HELM PEPTIDE1{L.[meA].[N#CCC[C@@H](O[*:1])C(=O)[*:2]].[Nle].[meL].L.[CN([C@@H](Cc1cn(Cc2ccc(Br)cc2)c2ccccc12)C(=O)[*:2])[*:1]]}$PEPTIDE1,PEPTIDE1,1:R1-7:R2$$$V2.0)", 6.10],
  ["CC(C)C[C@@H]1NC(=O)[C@H](CC(C)C)N(C)C(=O)[C@H](CC(F)(F)F)NC(=O)[C@@H](CCC#N)OC(=O)[C@H](C)N(C)C(=O)[C@H](CCC(F)(F)F)NC(=O)[C@H](Cc2csc3ccccc23)N(C)C1=O [C-49] (cyclo(L[NMeBta][Nva(5,5,5-F3)][NMeA][Butanoyl(2R-oxy,4-CN)][Abu(4,4,4-F3)][NMeL]))", 7.77]
]}
